# System: HeLa Kyoto;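 further: HeLa Kyoto cells synchronized by double thymidine or nocodazole block, proteins quantified by TMT10plex mass spectrometry, three independent biological replicates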
# TEST DETAILS: melting temperature (median over replicates), in situ; higher = more thermally stable
# CONDITION SET: cell cycle stage: mitosis
REPORTED METRIC: melting temperature
Remember to put the unit after the number in your answer.

- MASRGRRPEHGGPPELFYDETEARKYVRNSRMIDIQTRMAGRALELLYLPENKPCYLLDIGCGTGLSGSYLSDEGHYWVGLDISPAMLDEAVDREIEGDLLLGDMGQGIPFKPGTFDGCISISAVQWLCNANKKSENPAKRLYCFFASLFSVLVRGSRAVLQLYPENSEQLELITTQATKAGFSGGMVVDYPNSAKAKKFYLCLFSGPSTFIPEGLSENQDEVEPRESVFTNERFPLRMSRRGMVRKSRAWVLEKKERHRRQGREVRPDTQYTGRKRKPRF [WBSCR22]: 52.9 °C

# input sequence: MAAQKINEGLEHLAKAEKYLKTGFLKWKPDYDSAASEYGKAAVAFKNAKQFEQAKDACLREAVAHENNRALFHAAKAYEQAGMMLKEMQKLPEAVQLIEKASMMYLENGTPDTAAMALERAGKLIENVDPEKAVQLYQQTANVFENEERLRQAVELLGKASRLLVRGRRFDEAALSIQKEKNIYKEIENYPTCYKKTIAQVLVHLHRNDYVAAERCVRESYSIPGFNGSEDCAALEQLLEGYDQQDQDQVSDVCNSPLFKYMDNDYAKLGLSLVVPGGGIKKKSPATPQAKPDGVTATAADEEEDEYSGGLC [NAPG] ; wanted: its melting temperature 49.9 °C
